Consider the following molecules and their measured IC90 readings.
- Tested on: Collectotrichum graminicola (Cg)
- measurement.notes: Growth inhibition assay of fungal pathogens
- Format: cell-based
- condition.notes: 48 h, Table 4b, read-out: Concentration at 90% Inhibition Cg
Lab book: enter the figure in µg/mL, no units written.

Examples with their reported IC90 follow.
CCOC(=O)c1sc2c(c1C)c(=O)n(C(C)(C)C(=O)NC(C)C)c(=O)n2C[C@H](OCCC#N)c1ccccc1OC : 0.4
CCOC(=O)c1sc2c(c1C)c(=O)n(C(C)(C)C(=O)N1CCOCC1)c(=O)n2C[C@H](OC(C)C)c1ccccc1OC : 10
CCOC(=O)c1sc2c(c1C)c(=O)n(C(C)(C)C(=O)NC(C)C)c(=O)n2C[C@H](OCC(C)(C)C#N)c1ccccc1OC : 2
CCOC(=O)c1sc2c(c1C)c(=O)n(C(C)(C)C(=O)NC(C)C)c(=O)n2C[C@H](OC1CCOCC1)c1ccccc1OC : 2

# context switch: different molecule, same IC90
Which IC90 is reported for this molecule? `CCOC(=O)c1sc2c(c1C)c(=O)n(C(C)(C)C(=O)NC(C)C)c(=O)n2C[C@H](OCCC#N)c1cc(F)ccc1OC` 0.08
